Taken from paper PMC10294832.

System: human red blood cells
protocolNotes: Hemolytic assay
Format: cell-based
testParameters: concentration at 10% hemolytic activity on human red blood cells; mean (n = 2)
propertyName: Hemolysis HC10

# lookup: Hemolysis HC10 of O=C(NCCCNCCCCCCCNCCCNC(=O)c1cccc2ccccc12)c1cccc2ccccc12.O=C(O)C(F)(F)F.O=C(O)C(F)(F)F [Compound 17c]
>41.0 µM

Queued: O=C(CCC(=O)Nc1ccc(-c2ccccc2)cc1)NCCCNCCCCCCNCCCNC(=O)CCC(=O)Nc1ccc(-c2ccccc2)cc1.O=C(O)C(F)(F)F.O=C(O)C(F)(F)F [Compound 21b]
>33.3 µM

What do you have for O=C(NCCCNCCCCCCCCCCNCCCNC(=O)c1cccc2ccccc12)c1cccc2ccccc12.O=C(O)C(F)(F)F.O=C(O)C(F)(F)F [Compound 17e] ?
>38.9 µM

Continue with O=C(CCC(=O)Nc1ccc(-c2ccccc2)cc1)NCCCNCCCCNCCCNC(=O)CCC(=O)Nc1ccc(-c2ccccc2)cc1.O=C(O)C(F)(F)F.O=C(O)C(F)(F)F [Compound 21a]
31.4 µM

Thanks! And O=C(CCC(=O)Nc1ccc2ccccc2c1)NCCCNCCCCCCCNCCCNC(=O)CCC(=O)Nc1ccc2ccccc2c1.O=C(O)C(F)(F)F.O=C(O)C(F)(F)F [Compound 20c] ?
>34.7 µM

Same read-out for O=C(NCCCNCCCCCCCCCCCCNCCCNC(=O)c1cccc2ccccc12)c1cccc2ccccc12.O=C(O)C(F)(F)F.O=C(O)C(F)(F)F [Compound 17f] ?
>37.6 µM

###

protocolNotes: Cytotoxicity assay
Assay type: cell-based, human
testParameters: human, HEK293 human embryonic kidney cells, concentration at 50% cytotoxicity on HEK293 cells; mean (n = 2)
propertyName: IC50

Need IC50, item O=C(CCC(=O)Nc1ccc(-c2ccccc2)cc1)NCCCNCCCCCCCCNCCCNC(=O)CCC(=O)Nc1ccc(-c2ccccc2)cc1.O=C(O)C(F)(F)F.O=C(O)C(F)(F)F [Compound 21d]
> 32.4 µM

Also O=C(CCC(=O)Nc1cccc2ccccc12)NCCCNCCCCCCCNCCCNC(=O)CCC(=O)Nc1cccc2ccccc12.O=C(O)C(F)(F)F.O=C(O)C(F)(F)F [Compound 18c] ?
> 34.7 µM

Next: O=C(NCCCNCCCCCCCCCCCCNCCCNC(=O)c1ccc2ccccc2c1)c1ccc2ccccc2c1.O=C(O)C(F)(F)F.O=C(O)C(F)(F)F [Compound 19f]
> 37.6 µM

And for O=C(CCC(=O)Nc1ccc2ccccc2c1)NCCCNCCCCCCCNCCCNC(=O)CCC(=O)Nc1ccc2ccccc2c1.O=C(O)C(F)(F)F.O=C(O)C(F)(F)F [Compound 20c] ?
> 34.7 µM

Next molecule up: O=C(NCCCNCCCCNCCCNC(=O)c1ccc2ccccc2c1)c1ccc2ccccc2c1.O=C(O)C(F)(F)F.O=C(O)C(F)(F)F [Compound 19a]
26 µM

// same read-out, input: O=C(NCCCNCCCCCCCCNCCCNC(=O)c1cccc2ccccc12)c1cccc2ccccc12.O=C(O)C(F)(F)F.O=C(O)C(F)(F)F [Compound 17d]
> 40.3 µM

Quick one: O=C(CCC(=O)Nc1ccc(-c2ccccc2)cc1)NCCCNCCCCCCNCCCNC(=O)CCC(=O)Nc1ccc(-c2ccccc2)cc1.O=C(O)C(F)(F)F.O=C(O)C(F)(F)F [Compound 21b]
> 33.3 µM

What about O=C(NCCCNCCCCCCNCCCNC(=O)c1ccc2ccccc2c1)c1ccc2ccccc2c1.O=C(O)C(F)(F)F.O=C(O)C(F)(F)F [Compound 19b] ?
> 41.7 µM

Do the same for O=C(NCCCNCCCCCCCCCCCCNCCCNC(=O)c1cccc2ccccc12)c1cccc2ccccc12.O=C(O)C(F)(F)F.O=C(O)C(F)(F)F [Compound 17f] please
> 37.6 µM

Quick one: O=C(CCC(=O)Nc1ccc2ccccc2c1)NCCCNCCCCCCCCCCCCNCCCNC(=O)CCC(=O)Nc1ccc2ccccc2c1.O=C(O)C(F)(F)F.O=C(O)C(F)(F)F [Compound 20f]
> 32.2 µM

// same read-out, input: O=C(CCC(=O)Nc1ccc2ccccc2c1)NCCCNCCCCCCNCCCNC(=O)CCC(=O)Nc1ccc2ccccc2c1.O=C(O)C(F)(F)F.O=C(O)C(F)(F)F [Compound 20b]
> 35.2 µM
